measured.target: 72 kDa type IV collagenase (Homo sapiens, UniProt P08253)
Sequence (P08253 whole entry): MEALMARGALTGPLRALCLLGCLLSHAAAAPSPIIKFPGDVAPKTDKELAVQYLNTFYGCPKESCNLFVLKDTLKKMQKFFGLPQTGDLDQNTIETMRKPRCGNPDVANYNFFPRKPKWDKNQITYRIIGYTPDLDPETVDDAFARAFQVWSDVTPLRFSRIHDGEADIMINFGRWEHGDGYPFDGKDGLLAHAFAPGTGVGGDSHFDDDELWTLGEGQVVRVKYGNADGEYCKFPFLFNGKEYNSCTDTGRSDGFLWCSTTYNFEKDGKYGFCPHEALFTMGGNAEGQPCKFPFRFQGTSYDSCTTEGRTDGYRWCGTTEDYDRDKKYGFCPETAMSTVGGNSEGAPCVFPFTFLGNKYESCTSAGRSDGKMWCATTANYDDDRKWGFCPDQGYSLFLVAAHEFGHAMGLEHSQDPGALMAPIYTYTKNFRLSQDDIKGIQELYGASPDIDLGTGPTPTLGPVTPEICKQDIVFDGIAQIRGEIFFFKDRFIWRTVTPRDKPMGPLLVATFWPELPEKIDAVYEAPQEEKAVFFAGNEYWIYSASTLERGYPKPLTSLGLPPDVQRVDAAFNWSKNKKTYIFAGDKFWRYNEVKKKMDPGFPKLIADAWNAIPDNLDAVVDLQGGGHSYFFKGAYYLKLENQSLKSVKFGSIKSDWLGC
pIC50: −log10 of the molar value.
Assign class by pIC50: not lower than 6 means MET; lower than 6 means NOT MET.

# chem.smiles, answer.label
measured = [
    ("CCOC(=O)CNC(=O)[C@@H]1CC2(CN1S(=O)(=O)c1ccc(C)cc1)SCCS2", "MET"),
    ("COC(=O)[C@@H]1CC2(CN1S(=O)(=O)c1ccccc1)SCCS2", "NOT MET"),
    ("Cc1ccc(S(=O)(=O)N2CC3(C[C@H]2C(=O)NN)SCCS3)cc1", "NOT MET"),
    ("COc1ccc(S(=O)(=O)N2CC3(C[C@H]2C(=O)O)SCCS3)cc1", "NOT MET"),
    ("O=C(Cc1ccccc1)NNC(=O)[C@@H]1CC2(CN1S(=O)(=O)c1ccccc1)SCCS2", "NOT MET"),
    ("CCOC(=O)CNC(=O)[C@@H]1CC2(CN1S(=O)(=O)c1ccc([N+](=O)[O-])cc1)SCCS2", "MET"),
    ("COC(=O)[C@@H]1CC2(CN1S(=O)(=O)c1ccc(OC)cc1)SCCS2", "NOT MET"),
    ("O=C(O)[C@@H]1CC2(CN1S(=O)(=O)c1ccccc1)SCCS2", "NOT MET"),
]

Please turn your attention to the following entry.
Ask: Say whether "COc1ccc(S(=O)(=O)N2CC3(C[C@H]2C(=O)NN)SCCS3)cc1" shows pIC50 of 6 or more.
Reply: NOT MET

----------
measured.target: UniProtKB P08253
protocol.text: Inhibition of gelatinase A (unknown origin) after 30 mins by spectrophotometry
measurement.label: IC50 (nM)
Numbers only, in nM.

# chem.smiles, measured.target, IC50 / nM
measured = [
    ("O=C(NO)[C@@H]1CC2(CN1S(=O)(=O)c1ccccc1)SCCS2", "UniProtKB P08253", 877),
    ("O=C(O)[C@@H]1CC2(CN1S(=O)(=O)c1ccc([N+](=O)[O-])cc1)SCCS2", "UniProtKB P08253", 835),
    ("CCOC(=O)CNC(=O)[C@@H]1CC2(CN1S(=O)(=O)c1ccccc1)SCCS2", "UniProtKB P08253", 678),
    ("Cc1ccc(S(=O)(=O)N2CC3(C[C@H]2C(=O)NNC(=O)Cc2ccccc2)SCCS3)cc1", "UniProtKB P08253", 679),
]

Let us move to another entry and its IC50.
Ask: Entry "Cc1ccc(S(=O)(=O)N2CC3(C[C@H]2C(=O)NO)SCCS3)cc1" needs its IC50 filled in; supply it.
Reply: 678
